measuredTarget: Tyrosine-protein kinase CSK (Homo sapiens) (UniProt P41240);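 note: each value is an averaged inhibition reading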
Sequence (P41240 2-450 limits assumed): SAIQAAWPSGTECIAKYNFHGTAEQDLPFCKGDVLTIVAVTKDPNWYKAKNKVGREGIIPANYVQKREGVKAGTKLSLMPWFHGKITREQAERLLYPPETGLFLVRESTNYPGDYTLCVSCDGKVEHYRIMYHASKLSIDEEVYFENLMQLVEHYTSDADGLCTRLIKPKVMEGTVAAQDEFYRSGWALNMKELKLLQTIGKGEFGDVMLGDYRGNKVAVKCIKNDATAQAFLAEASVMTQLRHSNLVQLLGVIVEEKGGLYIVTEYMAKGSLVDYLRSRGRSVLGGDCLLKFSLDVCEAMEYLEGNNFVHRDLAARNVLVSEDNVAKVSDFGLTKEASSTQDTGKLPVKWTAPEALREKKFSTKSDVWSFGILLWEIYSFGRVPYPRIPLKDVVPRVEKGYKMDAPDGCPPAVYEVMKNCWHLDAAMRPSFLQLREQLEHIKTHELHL
settings: at 1 µM
observationType: inhibition

See these solved cases before continuing.
Fc1cccc(COc2ccc(Nc3ncnc4sc(-c5cccs5)cc34)cc2Cl)c1    3.11%
COc1cc2ncn(-c3cc(O[C@H](C)c4ccccc4Cl)c(C(N)=O)s3)c2cc1OC    10.1%
CC1=C(C(=O)Nc2ccc3[nH]ncc3c2)C(c2ccc(F)cc2)NC(=O)N1 (stereo not drawn)    1.35%
CC(=O)Nc1cccc(C#Cc2cncnc2Nc2ccc(OCc3cccc(F)c3)c(Cl)c2)n1    3.91%
O=C(Nc1n[nH]c2nc(-c3ccco3)c(Br)cc12)C1CC1    4.14%

For reference, reported inhibition for Cn1cc(C=C2C(=O)Nc3cccnc32)c2ccccc21 stands at -0.79%

For reference, reported inhibition for CCn1c(-c2nonc2N)nc2c(N3CCCC3)nccc21 stands at -3.39%

For reference, reported inhibition for Fc1cccc(COc2ccc(Nc3ncnc4cc(-c5ccc[nH]5)sc34)cc2Cl)c1 stands at 1.12%

For reference, reported inhibition for O=C1NC(=O)C(c2cccc(Cl)c2)=C1Nc1ccc(O)c(Cl)c1 stands at -5.59%

For reference, reported inhibition for CS(=O)(=O)CCNCc1nc(-c2ccc3ncnc(Nc4ccc(F)c(Cl)c4)c3c2)cs1 stands at 5.64%

For reference, reported inhibition for Cc1cc(O)cc(C)c1/C=C/c1cncc(-c2nn[nH]n2)c1 stands at 43.4%

For reference, reported inhibition for Nc1nc(-c2ccccn2)c(-c2ccc3ncccc3n2)s1 stands at 4.7%

For reference, reported inhibition for CCCN1CCC=C(c2ccc(Nc3nc(Nc4ccccc4C(N)=O)c4cc[nH]c4n3)c(C)c2)C1 stands at 1.79%

For reference, reported inhibition for CS(=O)(=O)CCN(CC#N)Cc1ccc(-c2ccc3ncnc(Nc4ccc(OCc5cccc(F)c5)c(Cl)c4)c3c2)o1 stands at 4.77%

For reference, reported inhibition for COc1cccc(-n2ncc3c(N/N=C/c4cccc(F)c4)ncnc32)c1 stands at 4.81%

For reference, reported inhibition for COc1ccc(-c2nn3ncccc3c2-c2ccnc(Nc3ccc(Cl)c(C(F)(F)F)c3)n2)cc1 stands at 5.3%

For reference, reported inhibition for Cc1nn(C)c2cc(N(C)c3ccnc(Nc4cccc(S(N)(=O)=O)c4)n3)ccc12 stands at 22.4%

For reference, reported inhibition for CN(C)c1cc2c(Nc3ccc4nc(Cc5ccccc5)[nH]c4c3)ncnc2cn1 stands at 55.3%

---

measuredTarget: PAS domain-containing serine/threonine-protein kinase (Homo sapiens) (UniProt Q96RG2)
Sequence (Q96RG2 whole entry, the tested form may be a part): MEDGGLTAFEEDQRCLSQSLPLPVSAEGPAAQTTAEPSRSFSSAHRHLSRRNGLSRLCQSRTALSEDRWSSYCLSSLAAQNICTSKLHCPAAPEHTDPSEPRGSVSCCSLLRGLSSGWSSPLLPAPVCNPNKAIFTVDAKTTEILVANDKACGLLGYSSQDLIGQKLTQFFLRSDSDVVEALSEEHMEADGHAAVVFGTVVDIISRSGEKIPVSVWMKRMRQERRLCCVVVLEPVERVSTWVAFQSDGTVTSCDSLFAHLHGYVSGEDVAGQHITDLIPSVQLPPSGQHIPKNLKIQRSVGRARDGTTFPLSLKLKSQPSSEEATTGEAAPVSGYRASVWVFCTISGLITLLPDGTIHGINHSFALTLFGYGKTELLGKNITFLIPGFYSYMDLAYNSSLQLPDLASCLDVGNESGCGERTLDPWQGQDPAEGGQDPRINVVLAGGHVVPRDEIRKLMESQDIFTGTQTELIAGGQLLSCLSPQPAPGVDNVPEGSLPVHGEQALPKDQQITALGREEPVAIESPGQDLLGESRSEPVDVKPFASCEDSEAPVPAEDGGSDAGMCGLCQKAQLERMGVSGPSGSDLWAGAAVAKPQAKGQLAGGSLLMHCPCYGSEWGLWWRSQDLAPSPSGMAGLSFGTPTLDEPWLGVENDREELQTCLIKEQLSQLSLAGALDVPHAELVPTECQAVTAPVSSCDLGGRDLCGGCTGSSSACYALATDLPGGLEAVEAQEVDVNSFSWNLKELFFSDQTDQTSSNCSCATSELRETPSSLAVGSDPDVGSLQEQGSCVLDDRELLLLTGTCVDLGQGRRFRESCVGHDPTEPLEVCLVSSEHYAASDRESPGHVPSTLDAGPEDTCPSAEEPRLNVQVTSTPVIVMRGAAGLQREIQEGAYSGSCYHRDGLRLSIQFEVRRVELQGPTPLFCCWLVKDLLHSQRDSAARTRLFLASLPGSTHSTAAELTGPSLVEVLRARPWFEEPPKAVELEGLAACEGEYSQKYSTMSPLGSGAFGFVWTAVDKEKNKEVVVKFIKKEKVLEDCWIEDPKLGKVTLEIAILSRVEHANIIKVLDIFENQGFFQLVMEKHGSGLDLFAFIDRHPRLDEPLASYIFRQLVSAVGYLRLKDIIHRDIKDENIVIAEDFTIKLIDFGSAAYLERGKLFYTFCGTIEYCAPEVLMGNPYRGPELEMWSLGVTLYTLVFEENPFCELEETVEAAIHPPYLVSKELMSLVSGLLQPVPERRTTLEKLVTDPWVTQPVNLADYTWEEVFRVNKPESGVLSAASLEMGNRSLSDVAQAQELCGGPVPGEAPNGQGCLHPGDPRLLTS
settings: at 0.1 µM
Description: GSK_PKIS: PASK mean inhibition at 0.1 uM [Nanosyn]
observationType: inhibition (%)
Response body: numeric value in %, unit text excluded.

See these solved cases before continuing.
Fc1cccc(COc2ccc(Nc3ncnc4sc(-c5cccs5)cc34)cc2Cl)c1    0.96
N#Cc1c(NC(=O)c2cccc3ccccc23)sc2c1CCCC2    -0.47
COc1cc2ncn(-c3cc(O[C@H](C)c4ccccc4Cl)c(C(N)=O)s3)c2cc1OC    1.62
O=C1Nc2ccc(C(=O)c3ccco3)cc2C1=Cc1cc(Cl)c(O)c(Cl)c1    -0.44
CCn1c(-c2nonc2N)nc2cncc(C(=O)N3CC[C@H](N)C3)c21    0.29
Cc1ccc(NC(=O)c2ccnc(N3CCCC3)c2)cc1-c1ccc(C(=O)NCC2CC2)cc1    -0.05
Fc1cccc(COc2ccc(Nc3ncnc4cc(-c5ccc[nH]5)sc34)cc2Cl)c1    -0.58
CCc1cccc(NC(=O)Nc2ccc(Oc3ccc4nc(NC(=O)OC)[nH]c4c3)cc2)c1    1.41
CC(=O)Nc1cccc(C#Cc2cncnc2Nc2ccc(OCc3cccc(F)c3)c(Cl)c2)n1    1.79

Query compound follows.
For reference, reported inhibition for COC(=O)Nc1nc2cc(Oc3ccc(NC(=O)Nc4cccc(C(=O)O)c4)cc3)ccc2[nH]1 stands at 0.9
